B1: ZBTB22 (parent)
chain: HTGLKPYECGVCAKKFMWRDSFMR

Variants of: B1
Experiment: protein stability index of a GFP-peptide fusion (GPS, HEK-293T) (PSI 1-6); higher = more stable;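 note: lentivirally expressed fusions sorted by FACS into six bins by GFP to DsRed ratio, PSI derived from sequencing read proportions per bin multiplied by bin number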
Conditions: c terminus: a fixed tail appended
Lab note: compare protein stability index against 2. Equal or greater, write TRUE. Smaller, write FALSE.

Completed entries (count: 3):
G3I | TRUE
P6L | TRUE
C9H | FALSE

**Q:** Please tell me: is the variant L4G at or over 2 in terms of protein stability index?
**A:** FALSE

**Q:** Please tell me: is the variant G10M at or over 2 in terms of protein stability index?
**A:** FALSE

**Q:** Please tell me: is the variant Y7A at or over 2 in terms of protein stability index?
**A:** TRUE

**Q:** Please tell me: is the variant K5P at or over 2 in terms of protein stability index?
**A:** FALSE

**Q:** Please tell me: is the variant C9F at or over 2 in terms of protein stability index?
**A:** TRUE

**Q:** Please tell me: is the variant W18H at or over 2 in terms of protein stability index?
**A:** TRUE

**Q:** Please tell me: is the variant A13M at or over 2 in terms of protein stability index?
**A:** TRUE

**Q:** Please tell me: is the variant R19F at or over 2 in terms of protein stability index?
**A:** FALSE

**Q:** Please tell me: is the variant F22D at or over 2 in terms of protein stability index?
**A:** TRUE

**Q:** Please tell me: is the variant G10A at or over 2 in terms of protein stability index?
**A:** TRUE

**Q:** Please tell me: is the variant R24V at or over 2 in terms of protein stability index?
**A:** TRUE

**Q:** Please tell me: is the variant D20S at or over 2 in terms of protein stability index?
**A:** TRUE

**Q:** Please tell me: is the variant H1D at or over 2 in terms of protein stability index?
**A:** FALSE

**Q:** Please tell me: is the variant W18I at or over 2 in terms of protein stability index?
**A:** FALSE

**Q:** Please tell me: is the variant V11T at or over 2 in terms of protein stability index?
**A:** FALSE

**Q:** Please tell me: is the variant F16H at or over 2 in terms of protein stability index?
**A:** FALSE

**Q:** Please tell me: is the variant T2P at or over 2 in terms of protein stability index?
**A:** TRUE

**Q:** Please tell me: is the variant K15R at or over 2 in terms of protein stability index?
**A:** TRUE

**Q:** Please tell me: is the variant M17A at or over 2 in terms of protein stability index?
**A:** TRUE
